- measured on: non-isoprenylated RAC1 full-length (RAC1^FL) (human, UniProt P63000 1-192)
- test name: FP; mdGDP-bound RAC1
assay endpoint: pKd
// returns pKd (minus log10 of molar concentration), number only

### Prompt I have this binder here, GDI1 (RHOGDI1), wild type (natural protein) MAEQEPTAEQLAQIAAENEEDEHSVNYKPPAQKSIQEIQELDKDDESLRKYKEALLGRVAVSADPNVPNVVVTGLTLVCSSAPGPLELDLTGDLESFKKQSFVLKEGVEYRIKISFRVNREIVSGMKYIQHTYRKGVKIDKTDYMVGSYGPRAEEYEFLTPVEEAPKGMLARGSYSIKSRFTDDDKTDHLSWEWNLTIKKDWKD , and I need its recorded pKd.
### Response 5.92

### Prompt I have this binder here, GDI1^ΔC6 (domain or fragment) MAEQEPTAEQLAQIAAENEEDEHSVNYKPPAQKSIQEIQELDKDDESLRKYKEALLGRVAVSADPNVPNVVVTGLTLVCSSAPGPLELDLTGDLESFKKQSFVLKEGVEYRIKISFRVNREIVSGMKYIQHTYRKGVKIDKTDYMVGSYGPRAEEYEFLTPVEEAPKGMLARGSYSIKSRFTDDDKTDHLSWEWNLTI , and I need its recorded pKd.
### Response 4.54

### Prompt I have this binder here, GDI1^2E>2K (E163K and E164K) (natural protein) MAEQEPTAEQLAQIAAENEEDEHSVNYKPPAQKSIQEIQELDKDDESLRKYKEALLGRVAVSADPNVPNVVVTGLTLVCSSAPGPLELDLTGDLESFKKQSFVLKEGVEYRIKISFRVNREIVSGMKYIQHTYRKGVKIDKTDYMVGSYGPRAEEYEFLTPVKKAPKGMLARGSYSIKSRFTDDDKTDHLSWEWNLTIKKDWKD , and I need its recorded pKd.
### Response 3.93
